The origin of these recorded values is patent US9707233B2.

Assignment: determine reported pIC50 for the given molecules.
- assay-system: PI3Kδ (p110δ/p85α) (Homo sapiens (Human), UniProt O00329)
- Sequence (O00329 whole entry): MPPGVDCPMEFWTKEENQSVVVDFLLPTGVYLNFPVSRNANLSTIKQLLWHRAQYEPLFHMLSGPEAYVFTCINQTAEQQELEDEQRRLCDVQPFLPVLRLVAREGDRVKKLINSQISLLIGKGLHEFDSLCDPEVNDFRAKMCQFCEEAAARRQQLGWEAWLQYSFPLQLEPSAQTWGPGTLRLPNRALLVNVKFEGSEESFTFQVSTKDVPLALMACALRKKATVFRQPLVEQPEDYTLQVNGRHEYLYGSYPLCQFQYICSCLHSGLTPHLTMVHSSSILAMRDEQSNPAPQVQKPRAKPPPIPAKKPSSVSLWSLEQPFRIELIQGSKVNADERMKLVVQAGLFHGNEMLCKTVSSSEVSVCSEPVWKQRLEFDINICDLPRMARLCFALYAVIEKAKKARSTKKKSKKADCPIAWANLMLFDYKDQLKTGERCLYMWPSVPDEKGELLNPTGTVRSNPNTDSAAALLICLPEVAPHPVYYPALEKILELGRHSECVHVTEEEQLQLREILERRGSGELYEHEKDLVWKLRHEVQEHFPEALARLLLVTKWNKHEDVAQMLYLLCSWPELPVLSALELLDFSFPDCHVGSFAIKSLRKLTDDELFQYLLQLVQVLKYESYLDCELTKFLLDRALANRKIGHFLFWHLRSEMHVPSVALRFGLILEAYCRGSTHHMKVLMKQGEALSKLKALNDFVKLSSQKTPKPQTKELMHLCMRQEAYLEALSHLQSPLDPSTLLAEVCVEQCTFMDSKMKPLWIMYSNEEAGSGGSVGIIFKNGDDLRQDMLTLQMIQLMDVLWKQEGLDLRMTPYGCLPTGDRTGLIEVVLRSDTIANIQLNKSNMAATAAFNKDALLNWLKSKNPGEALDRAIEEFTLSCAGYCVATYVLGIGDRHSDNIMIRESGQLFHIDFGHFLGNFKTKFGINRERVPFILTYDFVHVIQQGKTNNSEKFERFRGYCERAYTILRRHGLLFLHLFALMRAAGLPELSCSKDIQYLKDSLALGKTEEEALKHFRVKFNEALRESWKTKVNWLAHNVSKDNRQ
- Sequence (P27986 whole entry partner): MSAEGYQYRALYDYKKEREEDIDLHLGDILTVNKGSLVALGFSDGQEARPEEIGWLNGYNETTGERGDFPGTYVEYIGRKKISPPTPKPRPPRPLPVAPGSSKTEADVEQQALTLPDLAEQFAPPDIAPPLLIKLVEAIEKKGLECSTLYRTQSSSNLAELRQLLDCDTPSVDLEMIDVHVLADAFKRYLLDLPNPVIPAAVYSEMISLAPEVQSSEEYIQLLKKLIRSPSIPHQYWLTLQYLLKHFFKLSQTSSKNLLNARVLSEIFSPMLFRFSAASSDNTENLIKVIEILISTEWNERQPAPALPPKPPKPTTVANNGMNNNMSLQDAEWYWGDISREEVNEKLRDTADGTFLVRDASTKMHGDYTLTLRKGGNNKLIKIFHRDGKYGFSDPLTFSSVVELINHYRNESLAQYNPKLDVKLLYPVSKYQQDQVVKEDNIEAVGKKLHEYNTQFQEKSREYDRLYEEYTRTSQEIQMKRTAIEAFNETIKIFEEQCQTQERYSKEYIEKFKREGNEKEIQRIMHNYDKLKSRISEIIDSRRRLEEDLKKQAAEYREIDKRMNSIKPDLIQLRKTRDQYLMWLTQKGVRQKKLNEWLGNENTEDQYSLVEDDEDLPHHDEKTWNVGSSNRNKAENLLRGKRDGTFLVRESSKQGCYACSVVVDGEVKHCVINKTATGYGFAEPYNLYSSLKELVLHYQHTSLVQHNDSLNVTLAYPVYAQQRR
- assay-summary: PI3Kδ scintillation proximity assay (Example A3)
- assay-setup: 20 μM ATP, 20 μM PIP2, 4 nM PI3Kδ; read-out: PI3Kδ SPA IC50
pIC50: −log10 of the molar value.

// below: answered molecules
{"molecule": "CCOc1c(C(C)n2nc(C)c3c(N)ncnc32)cc(Cl)c(C#N)c1C1CN(C(C)=O)C1 (single isomer, unassigned)", "property-measured": "pIC50", "value-reported": "≥ 8.00"}
{"molecule": "COc1c(C(C)n2nc(C)c3c(N)ncnc32)cc(Cl)c(Cl)c1C1CN(C2COC2)C1 (single isomer, unassigned)", "property-measured": "pIC50", "value-reported": "≥ 8.00"}
{"molecule": "COc1c(C(C)n2nc(C)c3c(N)ncnc32)cc(Cl)c(C)c1C1CN(CC2CC2)C1 (racemic) [Example 4, bis(trifluoroacetate)]", "property-measured": "pIC50", "value-reported": "≥ 8.00"}
{"molecule": "CCOc1c(C(C)n2nc(C)c3c(N)ncnc32)cc(Cl)c(F)c1C1CNC(=O)O1 (single isomer, unassigned) [Example 358]", "property-measured": "pIC50", "value-reported": "< 6.30"}
{"molecule": "COc1c(C(C)n2ccc(=O)c3c(N)ncnc32)cc(Cl)c(C)c1-c1ccc(C(=O)N(C)C)nc1 (single isomer, unassigned) [25 (1st peak)]", "property-measured": "pIC50", "value-reported": "6.30 to 6.70"}

[in] Retrieve pIC50 measured for CCOc1c(C(C)n2nc(C)c3c(N)ncnc32)cc(C)c(C#N)c1C1CN(C(=O)C(C)(C)O)C1 (single isomer, unassigned) and print it.
[out] ≥ 8.00
